Below is a list of entries, each paired with its recorded optical density value.
tested-target: human Fc (human)
procedure-text: ELISA, negative control
reported-endpoint: optical density

1. 375_A12 (antibody, V domains shown) VH: EVQLLESGGGLVQPGGSLRLSCAASGFTFSSYSMNWVRQAPGKGLEWVSGINYNSGYKSYADSVKGRFTISRDNSKNTLYLQMNSLRAEDTAVYYCARGANWHDTALDYWGQGTLVTVSS VL: DIQMTQSPSSLSASVGDRVTITCRASQSILSYLNWYQQKPGKAPKLVIYAVTSRASGVPSRFSGSGSGTDFTLTISSLQPEDFATYYCQQSYETPLTFGGGTKVEIK: 0.174 OD
2. 370_B03 (antibody, V domains shown) VH: EVQLLESGGGLVQPGGSLRLSCAASGFTFSSYSMNWVRQAPGKGLEWVANINYNGGYTGYADSVKGRFTISRDNSKNTLYLQMNSLRAEDTAVYYCARGANWHDTALDYWGQGTLVTVSS VL: DIQMTQSPSSLSASVGDRVTITCRASQSILSYLNWYQQKPGKAPKLVIYAATSRASGVPSRFSGSGSGTDFTLTISSLQPEDFATYYCQQSYNNPLTFGGGTKVEIK: 0.3 OD
3. 367_A03 (antibody, V domains shown) VH: EVQLLESGGGLVQPGGSLRLSCAASGFTFDSYGMNWVRQAPGKGLEWVAGINYNGGYTSYADSVKGRFTISRDNSKNTLYLQMNSLRAEDTAVYYCARGANWHDTALDYWGQGTLVTVSS VL: DIQMTQSPSSLSASVGDRVTITCRASQSILTYVNWYQQKPGKAPKLLIYATTSRHSGVPSRFSGSGSGTDFTLTISSLQPEDFATYYCQQSYDSPLTFGGGTKVEIK: 0.347 OD
4. 376_C04 (antibody, V domains shown) VH: EVQLLESGGGLVQPGGSLRLSCAASGFTFSSYGMNWVRQAPGKGLEWVSNINYNGGYTGYADSVKGRFTISRDNSKNTLYLQMNSLRAEDTAVYYCARGANWHDTALDYWGQGTLVTVSS VL: DIQMTQSPSSLSASVGDRVTITCRASQSILSYVNWYQQKPGKAPKLLIYAVTSRHSGVPSRFSGSGSGTDFTLTISSLQPEDFATYYCQQSYDNPLTFGGGTKVEIK: 0.219 OD
5. 376_C07 (antibody, V domains shown) VH: EVQLLESGGGLVQPGGSLRLSCAASGFTFSSYSMNWVRQAPGKGLEWVSGINYNSGYKGYADSVKGRFTISRDNSKNTLYLQMNSLRAEDTAVYYCARSATWHDTHLDYWGQGTLVTVSS VL: DIQMTQSPSSLSASVGDRVTITCRASQSILSYVNWYQQKPGKAPKLLIYAATSRHSGVPSRFSGSGSGTDFTLTISSLQPEDFATYYCQQSYDLPLTFGGGTKVEIK: 0.265 OD

Hey, just so you know, these numbers are from patent US20210380703A1.
